Item-by-item account of inhibition
# Tested on: Bacteria
# method_notes: Inhibition of OXA-48 (unknown origin) expressed in Escherichia coli BL21 (DE3) at 10 uM incubated for 3 mins by spectrophotometric analysis relative to control

molecule="Oc1ccc(N2/C(=N/c3ccc(I)cc3)CC2c2ccc(Cl)cc2Cl)cc1 (racemic)" target_under_test=Bacteria endpoint=inhibition test_result="> 50%"
molecule="COc1ccc(N2/C(=N/c3ccc(Br)cc3)CC2c2ccc3ccccc3c2)cc1 (racemic)" target_under_test=Bacteria endpoint=inhibition test_result="> 50%"
molecule="Oc1ccc(N2/C(=N/c3ccccc3)CC2c2ccccc2)cc1 (racemic)" target_under_test=Bacteria endpoint=inhibition test_result=26%

So for COc1ccc(N2/C(=N/c3ccc(I)cc3)CC2c2ccc3ccccc3c2)cc1 (racemic) , the logged inhibition turned out to be > 50%

So for Clc1ccc(C2C/C(=N\c3ccc(I)cc3)N2c2ccc(OCc3ccccc3)cc2)c(Cl)c1 (racemic) , the logged inhibition turned out to be 41%

So for c1ccc(/N=C2\CC(c3ccccc3)N2c2ccc3c(c2)OCCO3)cc1 (racemic) , the logged inhibition turned out to be 37%

So for COc1ccc(N2/C(=N/c3ccc(I)cc3)CC2c2ccc(Cl)cc2)cc1 (racemic) , the logged inhibition turned out to be > 50%

So for COc1ccc(N2/C(=N/c3ccc(Br)cc3)CC2c2ccc(Cl)cc2)cc1 (racemic) , the logged inhibition turned out to be > 50%

So for COc1ccc(N2/C(=N/c3ccc(I)cc3)CC2c2cc(Cl)cc(Cl)c2)cc1 (racemic) , the logged inhibition turned out to be > 50%

So for COc1cccc(N2/C(=N/c3ccccc3)CC2c2ccccc2)c1 (racemic) , the logged inhibition turned out to be 28%

So for COc1ccc(N2/C(=N/c3ccc(I)cc3)CC2c2ccc(Cl)cc2Cl)cc1 (racemic) , the logged inhibition turned out to be > 50%

So for COc1ccc(N2/C(=N/c3ccc(Cl)cc3)CC2c2ccc3ccccc3c2)cc1 (racemic) , the logged inhibition turned out to be 18%
